These data points were gathered from patent US20040186081A1.

# targetSystem: UniProt:Q04609
# assayOverview: In vitro inhibition of NAALADase activity
# Format: biochemical
# cond: IC50

compound	targetSystem	IC50
O=C(NO)c1ccccc1O [2,N-Dihydroxy-benzamide]	UniProt:Q04609	≥ 100 µM

###

# targetSystem: NAALADase (Homo sapiens, UniProt Q04609)
# Sequence (Q04609 whole entry): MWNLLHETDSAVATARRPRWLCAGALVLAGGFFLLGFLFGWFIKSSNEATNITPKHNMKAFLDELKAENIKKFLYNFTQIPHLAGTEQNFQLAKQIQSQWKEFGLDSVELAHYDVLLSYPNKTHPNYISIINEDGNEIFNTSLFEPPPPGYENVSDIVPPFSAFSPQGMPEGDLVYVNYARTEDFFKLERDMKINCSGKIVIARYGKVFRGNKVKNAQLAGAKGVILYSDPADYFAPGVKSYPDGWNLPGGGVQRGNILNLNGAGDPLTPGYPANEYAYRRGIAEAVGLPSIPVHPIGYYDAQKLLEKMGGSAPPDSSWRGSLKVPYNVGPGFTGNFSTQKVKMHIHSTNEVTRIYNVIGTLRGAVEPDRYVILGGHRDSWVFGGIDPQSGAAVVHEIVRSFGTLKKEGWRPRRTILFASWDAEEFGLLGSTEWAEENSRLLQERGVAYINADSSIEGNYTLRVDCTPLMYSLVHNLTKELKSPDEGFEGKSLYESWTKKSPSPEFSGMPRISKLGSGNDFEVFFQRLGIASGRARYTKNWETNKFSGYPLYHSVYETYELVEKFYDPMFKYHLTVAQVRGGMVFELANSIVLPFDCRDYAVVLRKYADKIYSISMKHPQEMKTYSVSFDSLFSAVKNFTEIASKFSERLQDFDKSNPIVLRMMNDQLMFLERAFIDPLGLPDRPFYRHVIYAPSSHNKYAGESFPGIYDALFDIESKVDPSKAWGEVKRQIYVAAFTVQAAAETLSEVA
# assayOverview: In vitro inhibition of NAALADase activity
# Format: biochemical
# cond: read-out: IC50
pIC50: −log10 of the molar value.

molecule	pIC50
O=C(O)c1ccc([N+](=O)[O-])c(CC(CCCS)C(=O)O)c1 (stereo not drawn)	8.08
N#Cc1ccccc1CC(CCCS)C(=O)O (stereo not drawn)	6.35
CC(S)CCC(Cc1cc(C(=O)O)cc(C(C)(C)C)c1)C(=O)O (stereo not drawn)	9.00
COc1cc(CC(CCCS)C(=O)O)cc(C(=O)O)c1 (stereo not drawn)	7.89
COc1ccc(C(=O)O)cc1OC(CCCS)C(=O)O (stereo not drawn)	6.54
O=C(O)c1cccc(CS)c1	5.42
CN(O)C(=O)CSCCCC(Cc1cccc(C(=O)O)c1)C(=O)O (stereo not drawn)	4.83
COc1cc(COc2cccc(CCS)c2C(=O)O)ccc1C(=O)O	7.98
O=C(O)c1cccc(SC(CCCS)C(=O)O)c1 (stereo not drawn)	7.62
O=C(CCCCSCCCC(Cc1cccc(C(=O)O)c1)C(=O)O)NO (stereo not drawn)	5.12
O=C(O)C(CCCS)Cc1ccc2ccccc2c1 (stereo not drawn)	5.95
O=C(O)c1ccc(CNC(=O)c2cc(C(=O)O)cc(C(=O)NO)c2)cc1	5.56
O=C(O)c1c(CCS)cccc1Oc1ccccc1	5.94
O=C(O)C(CCCS)Cc1ccc(-c2ccccc2)cc1 (stereo not drawn)	6.64
O=C(O)c1cccc(CC(C(=O)O)C(=O)NO)c1 (stereo not drawn)	5.34
CC(C)(C)c1cc(CC(CCCS)C(=O)O)cc(C(=O)O)c1 (stereo not drawn)	10.30
O=C(CSCCc1cccc(OCc2ccc(C(=O)O)cc2)c1C(=O)O)NO	4.85
CCOC(=O)c1cc(C(=O)O)cc(C(=O)NO)c1	4.54
O=C(COc1cccc(C(=O)O)c1)NO [3-Hydroxycarbamoylmethoxy-benzoic acid]	4.39
O=C(CSCCCCC(Cc1cccc(C(=O)O)c1)C(=O)O)NO (stereo not drawn)	5.48
O=C(COc1cccc(-c2cccc(C(=O)O)c2)c1C(=O)O)NO	4.56
O=C(O)COc1cccc(CCS)c1C(=O)O	6.67
O=C(CCSCCCC(Cc1cccc(C(=O)O)c1)C(=O)O)NO (stereo not drawn)	6.95
O=C(O)c1ccccc1OC(CCCS)C(=O)O (stereo not drawn)	5.34
O=C(O)c1ccc(CC(CCCS)C(=O)O)cc1Br (stereo not drawn)	6.84
O=C(O)c1c(CCS)cccc1OCc1ccccc1Cl	6.80
O=C(O)c1ccc(F)c(CC(CCCS)C(=O)O)c1 (stereo not drawn)	8.20
O=C(O)c1cc(CC(CCCS)C(=O)O)ccc1F (stereo not drawn)	7.92
O=C(O)C(CCCS)Cc1cccc(Oc2ccccc2)c1 (stereo not drawn)	6.51
CC(C)(C)c1cc(COc2cccc(CCS)c2C(=O)O)cc(C(=O)O)c1	7.63
CC(C)C(SCCCC(Cc1cccc(C(=O)O)c1)C(=O)O)C(=O)NO (stereo not drawn)	5.55
O=C(O)c1cccc(CC(CCCS)C(=O)O)c1 (single isomer, unassigned; (+))	8.15
CC(=O)Nc1cccc(OC(CCCS)C(=O)O)c1 (stereo not drawn)	4.56
O=C(O)c1cc(CC(CCCS)C(=O)O)ccc1-c1ccccc1 (stereo not drawn)	7.74
O=C(CSCCCC(Cc1cccc(C(=O)O)c1)C(=O)O)NO (stereo not drawn)	6.40
CCC(SCCC(Cc1cc(C(=O)O)cc(C(C)(C)C)c1)C(=O)O)C(=O)NO (stereo not drawn)	4.80
N#Cc1ccc(COc2ccc(C(=O)NO)cc2)cc1	4.85
O=C(O)C(CCCS)Cc1ccc(O)cc1 (stereo not drawn)	5.67
O=C(COc1cc(C(=O)O)cc(C(=O)O)c1)NO	4.83
O=C(O)c1ccc(COc2cccc(CCS)c2C(=O)O)c(Br)c1	8.58
COC(=O)c1cc(CC(C(=O)O)C(=O)NO)cc(C(C)(C)C)c1 (stereo not drawn)	4.41
CC(=O)Nc1ccc(CC(CCCS)C(=O)O)cc1 (stereo not drawn)	5.66
